Molecular target: AMPK 111 (Homo sapiens, UniProt Q13131+Q9Y478)
Construct: open reading frames encoding the full-length α1, β1 and δ1 subunits of human AMPK
Sequence (Q13131 whole entry): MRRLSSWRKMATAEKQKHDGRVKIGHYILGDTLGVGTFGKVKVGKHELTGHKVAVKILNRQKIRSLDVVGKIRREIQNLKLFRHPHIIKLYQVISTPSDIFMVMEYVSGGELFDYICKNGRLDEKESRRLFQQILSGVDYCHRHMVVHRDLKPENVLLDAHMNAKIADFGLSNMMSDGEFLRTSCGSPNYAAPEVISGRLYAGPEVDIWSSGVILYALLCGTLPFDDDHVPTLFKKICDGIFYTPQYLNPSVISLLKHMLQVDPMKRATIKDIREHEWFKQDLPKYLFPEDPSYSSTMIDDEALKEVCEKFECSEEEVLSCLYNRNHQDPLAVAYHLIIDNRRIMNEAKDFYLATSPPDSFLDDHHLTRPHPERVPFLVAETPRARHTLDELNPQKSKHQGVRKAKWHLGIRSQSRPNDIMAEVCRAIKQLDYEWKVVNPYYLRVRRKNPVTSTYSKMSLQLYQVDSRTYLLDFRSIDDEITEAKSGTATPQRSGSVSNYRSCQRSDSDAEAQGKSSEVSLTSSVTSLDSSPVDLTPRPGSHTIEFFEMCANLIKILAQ
Sequence (Q9Y478 whole entry): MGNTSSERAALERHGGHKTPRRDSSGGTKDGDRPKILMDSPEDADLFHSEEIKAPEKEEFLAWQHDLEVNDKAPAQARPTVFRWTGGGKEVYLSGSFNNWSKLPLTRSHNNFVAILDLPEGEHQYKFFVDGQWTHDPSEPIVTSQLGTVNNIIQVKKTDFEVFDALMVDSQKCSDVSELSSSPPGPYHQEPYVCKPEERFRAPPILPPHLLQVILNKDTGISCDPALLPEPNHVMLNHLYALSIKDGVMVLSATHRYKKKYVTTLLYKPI
Sequence (P54619 whole entry partner): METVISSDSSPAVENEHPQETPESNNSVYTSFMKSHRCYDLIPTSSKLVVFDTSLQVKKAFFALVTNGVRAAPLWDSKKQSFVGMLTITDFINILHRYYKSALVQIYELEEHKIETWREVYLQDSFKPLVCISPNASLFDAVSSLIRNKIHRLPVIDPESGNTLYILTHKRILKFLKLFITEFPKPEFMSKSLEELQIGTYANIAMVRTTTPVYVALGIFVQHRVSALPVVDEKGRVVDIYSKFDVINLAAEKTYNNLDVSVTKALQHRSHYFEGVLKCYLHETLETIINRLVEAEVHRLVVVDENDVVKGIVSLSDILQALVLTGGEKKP
Test: Biochemical profiling of AMPK activators by AMPK111 (HTRF/TR-FRET assay, SAMS peptide, PP2A dephosphorylation protection)
Conditions: phosphorylated AMPK 111 (α1β1δ1 as printed); 11 point dilution, duplicate; 4-parameter fit
The threshold is 200 nM. Values of EC50 beneath it are tagged criterion met; values meeting or exceeding it are tagged criterion not met.

Use these answered entries as a reference point.
| compound | class.assignment |
| --- | --- |
| O=C(O)CCc1n[nH]c2cc(Cl)c(-c3ccc(-c4cccc(CO)c4)cc3)cc12 [Example 61] | criterion not met |
| CCOc1cccc(-c2ccc(-c3cc4c(CCC(=O)O)n[nH]c4cc3Cl)cc2)c1O [Example 25] | criterion met |
| O=C(O)CCc1n[nH]c2cc(Cl)c(-c3ccc(-c4c(O)cccc4F)cc3)cc12 [Example 50] | criterion met |

Query: Strictly below 200 nM: is that where EC50 of CC(=O)N(C)c1ccc(-c2ccc(-c3cc4c(CCC(=O)O)n[nH]c4cc3Cl)cc2)cc1 [Example 39] sits?
Response: criterion met

Query: Strictly below 200 nM: is that where EC50 of COc1ccc(F)c(-c2ccc(-c3cc4c(CCC(=O)O)n[nH]c4cc3Cl)cc2)c1O [Example 26] sits?
Response: criterion met
